Data provenance: patent US20220064286A1

studyTarget: cynomolgus monkey (cyno) TIGIT protein (cynomolgus monkey, UniProt A0A7N9I9V4 89-209)
Sequence (A0A7N9I9V4 entry or part of it): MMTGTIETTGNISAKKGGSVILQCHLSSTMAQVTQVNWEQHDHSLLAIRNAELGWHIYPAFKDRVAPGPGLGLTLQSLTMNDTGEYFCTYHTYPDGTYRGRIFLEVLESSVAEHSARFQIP
assayNotes: SPR, captured mAb
reportedProperty: kon (M⁻¹ s⁻¹)
Quick reminder: number only, in M⁻¹ s⁻¹, skip the unit.

# lookup: kon of 7.4A3 (antibody, V domains shown, OMT rat-derived human antibody; also called 7.4A3.Q1.C96) VH: QVQLVQSGSDLKKPGASVRVSCKASGYTFTSYPMNWVRQAPGHGLEWMGWINTNTGNPTYVQGFTGRFVFSLDTSVNTAYLQISSLKAEDTAVYFCARTGGHTYDSYAFDVWGQGTMVTVSS VL: DIQLTQSPTFLSASVGDRVTITCRASQVISSSLAWYQQNPGKAPKLLIYAASTLQSGVPSRFSGSGSGTEFTLTISSLQPEDFVTYYCQHLHGYPCNFGQGTKVEIK
334000

Others:
# lookup: kon of 4.1A4.C96S.Q1E (antibody, V domains shown, FR/HVR pieces in order; also called 4.1A4.Q1E.C96S) VH: EVQLVQSGSELKKPGASVKVSCKASGYTLTNYPMNWVRQAPGRGLEWMGWINTNTGSPAYAQDFTERFVFSLDTSVTTAYLQISSLKAEDTAVYYCARTAITSVYHFDYWGQGTLVTVSS VL: DIQLTQSPSFLSASVGDRVTITCRASQGISSYLAWYQQKPGKAPRVLIYGATTLQSGVPSRFSGSESGTEFTLTISSLQPEDLATYYCQKLNSHPSSFGQGTKVEIK
1.34e+06

Record: 7.4A3.C96Y.Q1E (antibody, V domains shown, No entry is tied to this variant by name; built from 7.4A3 with the two named changes (Q1E in the heavy chain, C96Y in HVR-L3); also called 7.4A3.Q1E.C96Y) VH: EVQLVQSGSDLKKPGASVRVSCKASGYTFTSYPMNWVRQAPGHGLEWMGWINTNTGNPTYVQGFTGRFVFSLDTSVNTAYLQISSLKAEDTAVYFCARTGGHTYDSYAFDVWGQGTMVTVSS VL: DIQLTQSPTFLSASVGDRVTITCRASQVISSSLAWYQQNPGKAPKLLIYAASTLQSGVPSRFSGSGSGTEFTLTISSLQPEDFVTYYCQHLHGYPYNFGQGTKVEIK
395000
